Listed here are compounds together with their documented IC50.
target: HIV-1 RT (Human immunodeficiency virus type 1 group M subtype B, UniProt P04585); construct: HIV-1 RT enzyme (final concentrations of 1-3 nM); test: HIV-1 Reverse Transcriptase Assay (RNA-dependent DNA polymerase activity, SPA); format: biochemical; settings: HIV-1 RT enzyme 1-3 nM, 30° C., 30 min; read-out: HIV-1 RT IC50
A number alone suffices; assume µM.

Worked examples, 3 compounds total:
Compound | IC50 [µM]
N#Cc1cc(Cl)cc(Oc2c(Br)ccc(Cn3c(=O)[nH]c4ccccc43)c2F)c1 [Compound I-1] | 0.0122
CCc1n[nH]c(=O)n1Cc1ccc(Br)c(Oc2cc(Cl)cc(C#N)c2)c1F [Compound I-9] | 0.0197
N#Cc1cc(Cl)cc(Oc2c(Br)ccc(Cn3c(=O)[nH]c4c3ccc[n+]4[O-])c2F)c1 [Compound I-3] | 0.0159

## Input # query: IC50 | item N#Cc1cc(Cl)cc(Oc2c(Br)ccc(Cn3cn[nH]c3=O)c2F)c1 [Compound I-8] | system: HIV-1 RT (Human immunodeficiency virus type 1 group M subtype B, UniProt P04585)
## Output 0.0451

## Input # query: IC50 | item N#Cc1cc(Cl)cc(Oc2c(Br)ccc(Cn3c(=O)[nH]c4ncccc43)c2F)c1 [Compound I-2] | system: HIV-1 RT (Human immunodeficiency virus type 1 group M subtype B, UniProt P04585)
## Output 0.0058

## Input # query: IC50 | item N#Cc1cc(Cl)cc(Oc2c(Br)ccc(CNC(=O)Nc3ccccc3F)c2F)c1 [Compound I-11] | system: HIV-1 RT (Human immunodeficiency virus type 1 group M subtype B, UniProt P04585)
## Output 0.0331

## Input # query: IC50 | item Cc1n[nH]c(=O)n1Cc1ccc(Br)c(Oc2cc(Cl)cc(C#N)c2)c1F [Compound I-10] | system: HIV-1 RT (Human immunodeficiency virus type 1 group M subtype B, UniProt P04585)
## Output 0.0546

## Input # query: IC50 | item N#Cc1cc(Cl)cc(Oc2c(Br)ccc(Cn3c(=O)[nH]c4nnccc43)c2F)c1 [Compound I-7] | system: HIV-1 RT (Human immunodeficiency virus type 1 group M subtype B, UniProt P04585)
## Output 0.0051

## Input # query: IC50 | item N#Cc1cc(Cl)cc(Oc2c(Br)ccc(COC(=O)Nc3ccc(Cl)cc3Cl)c2F)c1 [Compound I-12] | system: HIV-1 RT (Human immunodeficiency virus type 1 group M subtype B, UniProt P04585)
## Output 0.0682

## Input # query: IC50 | item N#Cc1cc(Cl)cc(Oc2c(Cl)ccc(Cn3c(=O)[nH]c4cnccc43)c2F)c1 [Compound I-6] | system: HIV-1 RT (Human immunodeficiency virus type 1 group M subtype B, UniProt P04585)
## Output 0.007

## Input # query: IC50 | item N#Cc1cc(Cl)cc(Oc2c(Br)ccc(Cn3c(=O)[nH]c4c[n+]([O-])ccc43)c2F)c1 [Compound I-5] | system: HIV-1 RT (Human immunodeficiency virus type 1 group M subtype B, UniProt P04585)
## Output 0.492

* * *

Reported Endpoint: melting point

## Input Returns the measured melting point for the input molecule. Input: N#Cc1cc(Cl)cc(Oc2c(Br)ccc(Cn3cn[nH]c3=O)c2F)c1
## Output 107 °C

## Input Returns the measured melting point for the input molecule. Input: N#Cc1cc(Cl)cc(Oc2c(Cl)ccc(Cn3c(=O)[nH]c4cnccc43)c2F)c1
## Output 232 to 233 °C

## Input Returns the measured melting point for the input molecule. Input: N#Cc1cc(Cl)cc(Oc2c(Br)ccc(Cn3c(=O)[nH]c4ccccc43)c2F)c1
## Output 227 to 229 °C

* * *

Listed here are molecules together with their documented melting point.

## Input Returns the measured melting point for the input molecule. Input: N#Cc1cc(Cl)cc(Oc2c(Br)ccc(COC(=O)Nc3ccc(Cl)cc3Cl)c2F)c1
## Output 138.3 to 139.9 °C

## Input Returns the measured melting point for the input molecule. Input: N#Cc1cc(Cl)cc(Oc2c(Br)ccc(Cn3c(=O)[nH]c4ncccc43)c2F)c1
## Output 255.5 to 258.5 °C

## Input Returns the measured melting point for the input molecule. Input: N#Cc1cc(Cl)cc(Oc2c(Br)ccc(Cn3c(=O)[nH]c4cnccc43)c2F)c1
## Output 219 to 221.5 °C

## Input Returns the measured melting point for the input molecule. Input: N#Cc1cc(Cl)cc(Oc2c(Br)ccc(Cn3c(=O)[nH]c4c[n+]([O-])ccc43)c2F)c1
## Output 226.8 to 229 °C

## Input Returns the measured melting point for the input molecule. Input: N#Cc1cc(Cl)cc(Oc2c(Br)ccc(Cn3c(=O)[nH]c4c3ccc[n+]4[O-])c2F)c1
## Output 259 to 260 °C

## Input Returns the measured melting point for the input molecule. Input: CCc1n[nH]c(=O)n1Cc1ccc(Br)c(Oc2cc(Cl)cc(C#N)c2)c1F
## Output 264 to 265 °C

## Input Returns the measured melting point for the input molecule. Input: N#Cc1cc(Cl)cc(Oc2c(Br)ccc(CNC(=O)Nc3ccccc3F)c2F)c1
## Output 215.5 to 215.8 °C

## Input Returns the measured melting point for the input molecule. Input: Cc1n[nH]c(=O)n1Cc1ccc(Br)c(Oc2cc(Cl)cc(C#N)c2)c1F
## Output 129.9 to 131 °C

* * *

target: HIV-1 RT (Human immunodeficiency virus type 1 group M subtype B, UniProt P04585); construct: HIV-1 RT enzyme (final concentrations of 1-3 nM); test: HIV-1 Reverse Transcriptase Assay (RNA-dependent DNA polymerase activity, SPA); type: biochemical
Reported Endpoint: IC50 (nM)
A number alone suffices; assume nM.

## Input Returns the measured IC50 for the input compound. Input: N#Cc1cc(Cl)cc(Oc2c(Br)ccc(Cn3c(=O)[nH]c4cnccc43)c2F)c1
## Output 5
